Recorded values, source the DeepSol protein solubility set.

PROTOCOL: soluble on expression in E. coli; label from the status in PepcDB or PDB records

MACROMOLECULE SEQUENCE	soluble on expression in E. coli
MSLTAIHRPTWVSVDLDAAAHNLQEIREWTKAKKVYAVLKADGYGLGAIPLAKAFQETASADALIVSNLDEALELRQADLTLPIWVLGAWDYSDLKLFIDHDIVITIPSLAWLQNLPDFEGTLKVSLAIDTGMTRIGFDKADEISAAKKIIDKNPQLDLFSVYTHFATADEAGEKSKAYFEEQLRRWQELTINQGFDPSLFSMANSATCIWHHDDPRISFAAIRPGQLISGVNVSNGELKMPPNLHLERIFSVCSEIADVRFVKKDQSLSYGASERMPEDGYVATLPFGYNDGWLRRMQKSSVIINGKRMPIIGRITMDQTMVKLDRKYPIGTRVTLIGKDGGEQITVEEVANYSHTIVDEIQTTLAPRIKRIYTGDLAEVIGANYGEGHHHHHH	soluble
MCLIAFDWQPDAAAGPVFTLIANRDEFFRRTSAPLSWWEDVPGVLAGRDLEAGGTWLGVSRDGRFAALTNYRAPFDIRAGAPTRGKLVSDFLGGPPVAPLDYLGALAEHSAVYNGFNLLVGDWKRRELAWFCNRAAEGETAVAPPVAVSAGVHALSNARLDTPWPKIVRKRAELGTLLTDNPTPSLDELIELMRDPRVADDDALPHTGIPIERERALSAAFIETPEYGTRGTTALRVTMKEGVRLTVDIKERCDDDGSHRTVRPGTFERAFTFDIDATQPRLEHHHHHH	soluble

---

PROTOCOL: soluble on expression in E. coli; label from the status in PepcDB or PDB records

MACROMOLECULE SEQUENCE	soluble on expression in E. coli
MERETPKTPTPTPYTNIYAALNNKKTNDEVASKVTEELNKLKIAEEKDNKIVSREKPEMMSLNTLVEMCSAGEKPTKGKSEKDIRKKKAPVLVDDNQSYVMIGPPSEPVEPPATLSTETSKTNAIEESTVKRSEALSAYIGVATLNDAENHLTRRGEFALYHLFNPNGRLDTITEKLPLMIVYRTTTKKNRHYSIRTTCDQQFFVDCGYPNVRKHYSLNHLVKFYKVRILLPDTIQKQQLTDILQILKQFQTSATCEINPYDTSADSFSWWLE	soluble
MSLDIENTLLKQEAWRFIDNTTINPAFDAIQSFATDDTLCRSVGARMVPPTVRGWVHEKTVSLGIQDSKLPDIDKGIAFLQEQGYRVVVRNSGGLAVVLDSGVLNLSMVLPDAERGIAIERGYETMFTLIKDMFVDCNEVIEAKEIVNSYCPGSYDLSIQGQKFAGISQRRMAKGVAVQIYLAVEGDQAARSELIRDFYTISGKDKQTKYSFPDVKPEVMGTLSDLMKENMTVNGCLVRLFNSLRHYAGKLESGTLTPEELDLFPAYYERLIARNDKVLSEGHHHHHH	soluble

---

PROTOCOL: soluble on expression in E. coli; label from the status in PepcDB or PDB records
OUTCOME MEASURE: soluble on expression in E. coli

Known results for sequences:
MACROMOLECULE SEQUENCE	soluble on expression in E. coli
MGSDKIHHHHHHENLYFQGMLYHLVMLEPEGEGAMDRIMEAMAILDGLAPELPGLTEFRHGPNRDFEQKSERYPYGFLCTFTDKAALDAYAVHPTHQRAGGMLVASCRNGADGILVVDLEV	soluble
MGSDKIHHHHHHMQQEQRILFKNDTGDYAAVAAGEESVLQAGLRQSVPLNYHCASGSCGSCKARLIQGALKVHTGTDFIQVSHTADQVCEYPEVHLCQSHAVSDCVFEALYDKNVPPDLVTPKHYAASLSDVRPLGSGLYRLLVDFDDSIRFLPGQYVMLATEAGGRARAYSVANFAQDSRQLEFILSCNPNGAMSPQLCDINNIGMQLQGYGPLGKAYIRPSKDKEIVMLVGGSGVSVALSTLEWAISSHYIDDRHLTIFWGVRDTSPIDLIGVLNRYAAVHSNLRVAVCSDISPSVQDRVRFPHIEFFTGYPADHIVNDASISWEGKEVYISGPPPMVDHTVRQLMINTEIDALDIKCDSFV	not soluble
GHMPAYVFSKESFLKFLEGHLEDDVVVVVSSDVTDFCKKLSESMVGEKEYCFAEFAFPADIFDADEDEIDEMMKYAIVFVEKEKLSEAGRNAIR	soluble
MGHHHHHHSHMLSHNTMMKQRKQQATAIMKEVHGNDVDGMDLGKKVSIPRDIMLEELSHLSNRGARLFKMRQRRSDKYTFENFQYQSRAQINHSIAMQNGKVDGSNLEGGSQQAPLTPPNTPDPRSPPNPDNIAPGYSGPLKEIPPEKFNTTAVPKYYQSPWEQAISNDPELLEALYPKLFKPEGKAELPDYRSFTRVATPFGGFEKASRMVKFKVPDFELLLLTDPRFMSFVNPLSGRRSFNRTPKGWISENIPIVITTEPTDDTTVPESEDL	not soluble
MPEYSSVTGLEGVKFAPLKKENGFYVATKIIDYPYAINAKVNTETSTEKQYADNKLVDMAVTTGSTKLELEMRDLPMEILEELFGIEETDGIYMFKKNVIAPWVAMSFYGPKANGKNRHVGLVKGRFSLPDDEWKTKEEKTDFQTVKLSAEFMEREQDNAYKVLADEDAPNFNLDKFYEKVFGNAYKNPDSGSDNKSSVDIGKTVLEHHHHHH	soluble

Entry "MGSDKIHHHHHHMNIPIKTLHYFLTLVETGNFTRAAEKSFITQPTLSKIIQRLEENLGQQLLHRNNQKIELTQAGILLENSAREILGQWHRLQEDLTNLSGLKSGHLRLGVCPMMSSLIIDLLTAFRQQYPGIELQMYEYGGFGCEQALLNNSLDIAFTALPTTHDIELANRALTRYPLLACLPKDHALAQQEAVTWQDFEAYPFILYNEDFSLAKLITRLSHKAGVQLNIAFRSGQWDFLATMVEAQMGVAILPEPICHKLQGSELVFKPIRPNLTWDLALIWRKDLPLTPAAQALLDLSEQAHLHP" : reported soluble on expression in E. coli = ? not soluble

---

PROTOCOL: soluble on expression in E. coli; label from the status in PepcDB or PDB records

MACROMOLECULE SEQUENCE	soluble on expression in E. coli
FVNVGERTNVTGSKMFARLVREEKYDEALAVARQQVENGAQIIDVNMDEAMLDSVACMHRFLNLIASEPDIARVPVMIDSSKWEVIETGLKCVQGKAVVNSISMKEGEEPFRHHARLCRRYGAAMVVMAFDEQGQADSLERRKEICGRAYRILVEEEGFPPEDIIFDPNVFAVATGIDEHNHYAVDFIEGARWIRANLPHARISGGISNVSFSFRGNEPMREAIHTVFLYYAIEAGLTMGIVNAGQLGVYADLAPHLRDLVEDVILDRPE	not soluble
MGSDKIHHHHHHQQLLLIEKLDGTLEDYLFSDDFDEKVLLSCLFQISFSLHYLQKHYKFTHNDLHINNVMYSETTTKYLYYKFNNQYFKIPTYGKIFKIIDFGRSIFTYNNKIYMNDVFTKNSEAWGQFYYPPQVQFLTKPPEDIPNIEPNYNFDLCRLSMTIIEEIDKSKLSENMFNFLNDMCIDKFNENYCEMEDNFSLYINISKNAINSLPEDILNKTIFKQYKVIKKNFPSKLYYK	not soluble
SLREHLMSIEVANESGIDVSEAELVSVARFVIAKMDVNPCAELSMLLLDTAAMADLHMRWMDLPGPTDVMSFPMDELEPGGRPDAPEPGPSMLGDIVLCPEFAAEQAAAAGHSLGHELALLTIHGVLHLLGYDHAEPDEEKEMFALQDRLLEEWVADQVEAYQHDRQDEKDRRLLDKSRYFDL	not soluble

---

PROTOCOL: soluble on expression in E. coli; label from the status in PepcDB or PDB records

MACROMOLECULE SEQUENCE	soluble on expression in E. coli
MSLTARIGVVTFPGSLDDRDTQRAIKLAGAEPVALWHKDKDLKQVDAVVLPGGFSYGDYLRAGAISRFSPVMETVIEQAKSGMPVLGICNGFQILTEAHLLPGAMLGNNHLHFICRDQKLRVENADTAWTSDYEAGQEIHIPLKNMDGRYVADERTLDMLEAEGRVAFRYVVGGAAADGYGNPNGSLRDIAGITNEAGNVVGLMPHPEHAVEPLIGTGRTDGLPFFTSILKKLVNAEGHHHHHH	soluble
MIDCAIIGGGPAGLSAGLYATRGGVKNAVLFEKGMPGGQITGSSEIENYPGVKEVVSGLDFMQPWQEQCFRFGLKHEMTAVQRVSKKDSHFVILAEDGKTFEAKSVIIATGGSPKRTGIKGESEYWGKGVSTCATCDGFFYKNKEVAVLGGGDTAVEEAIYLANICKKVYLIHRRDGFRCAPITLEHAKNNDKIEFLTPYVVEEIKGDASGVSSLSIKNTATNEKRELVVPGFFIFVGYDVNNAVLKQEDNSMLCKCDEYGSIVVDFSMKTNVQGLFAAGDIRIFAPKQVVCAASDGATAALSVISYLEHH	soluble
